The reported measurements were obtained from ChEMBL document CHEMBL3885861.

# Species on record: Rattus norvegicus
# testDescription: Open TG-GATES - Regimen: Single
# Assay type: toxicity, organism-based, Sprague-Dawley
# Set-up: regimen Single, gender Male, age 6 weeks
# conditionNotes: in vivo, po, 0 mg/kg, 24 h, tissue Plasma, route gavage, dose level Control
# TBIL per record follows
recordedEndpoint: TBIL (mg/dL)

compound: Oc1ncnc2[nH]ncc12 [ALLOPURINOL]
observedValue: 0.3

compound: O=C(N[C@H](CO)[C@H](O)c1ccc([N+](=O)[O-])cc1)C(Cl)Cl [CHLORAMPHENICOL]
observedValue: 0.056

compound: O=C(O)c1cccnc1 [NIACIN]
observedValue: 0.002

compound: Nc1nc(N)c2nc(-c3ccccc3)c(N)nc2n1
observedValue: 0.044

compound: CC(=N)S [THIOACETAMIDE]
observedValue: 0.3

compound: CCSCC[C@H](N)C(=O)O [ETHIONINE]
observedValue: 0.1

compound: CC(C)(S)[C@@H](N)C(=O)O [PENICILLAMINE]
observedValue: 0.026

---

# Species on record: Rattus norvegicus
# testDescription: Open TG-GATES - Regimen: Daily Repeat
# Assay type: toxicity, organism-based, Sprague-Dawley
# Parameters: regimen Daily Repeat, gender Male, age 6 weeks
# conditionNotes: in vivo, po, 300 mg/kg, […], tissue Plasma, route gavage, dose level Middle, time 28 day
# LDH per record follows

compound: O=C(O)c1cccnc1
LDH / IU/L: 149.2
--
compound: CCN1CCCC1CNC(=O)c1cc(S(N)(=O)=O)ccc1OC (centres undefined) [SULPIRIDE]
LDH / IU/L: 56.2
--
compound: O=C(N[C@H](CO)[C@H](O)c1ccc([N+](=O)[O-])cc1)C(Cl)Cl
LDH / IU/L: 49.2
--
compound: CC(C)(S)[C@@H](N)C(=O)O
LDH / IU/L: 60.6

---

# Species on record: Rattus norvegicus
# testDescription: Open TG-GATES - Regimen: Daily Repeat
# Assay type: toxicity, organism-based, Sprague-Dawley
# Design: regimen Daily Repeat, gender Male, age 6 weeks
# conditionNotes: in vivo, po, 300 mg/kg, […], tissue Plasma, route gavage, dose level Middle, time 28 day
recordedEndpoint: ALT (IU/L)

molecule: O=C(O)c1cccnc1 [NIACIN]
observedValue: 41.4

molecule: CC(C)(S)[C@@H](N)C(=O)O [PENICILLAMINE]
observedValue: 33.8

molecule: CCN1CCCC1CNC(=O)c1cc(S(N)(=O)=O)ccc1OC (centres undefined) [SULPIRIDE]
observedValue: 43.8

molecule: O=C(N[C@H](CO)[C@H](O)c1ccc([N+](=O)[O-])cc1)C(Cl)Cl [CHLORAMPHENICOL]
observedValue: 43

---

# TC per record follows
# Species: Rattus norvegicus
# testDescription: Open TG-GATES - Regimen: Daily Repeat
# Type: toxicity, organism-based, Sprague-Dawley
# Design: regimen Daily Repeat, gender Male, age 6 weeks
# conditionNotes: in vivo, po, 1000 mg/kg, 72 h, tissue Plasma, route gavage, dose level High, time 3 day

molecule: O=C(O)c1cccnc1
TC (mg/dL): 73.4
--
molecule: CC(C)(S)[C@@H](N)C(=O)O
TC (mg/dL): 74.8
--
molecule: O=C(N[C@H](CO)[C@H](O)c1ccc([N+](=O)[O-])cc1)C(Cl)Cl
TC (mg/dL): 72.6
--
molecule: CCN1CCCC1CNC(=O)c1cc(S(N)(=O)=O)ccc1OC (centres undefined) [SULPIRIDE]
TC (mg/dL): 82.2

---

# Organism: Rattus norvegicus
# testDescription: Open TG-GATES - Regimen: Daily Repeat
# Assay type: toxicity, organism-based, Sprague-Dawley
# Design: regimen Daily Repeat, gender Male, age 6 weeks
# conditionNotes: in vivo, po, 1000 mg/kg, […], tissue Plasma, route gavage, dose level High, time 7 day
recordedEndpoint: DBIL (mg/dL)

molecule: CC(C)(S)[C@@H](N)C(=O)O
recordedEndpoint: DBIL
observedValue: 0.016
//
molecule: CCN1CCCC1CNC(=O)c1cc(S(N)(=O)=O)ccc1OC (centres undefined) [SULPIRIDE]
recordedEndpoint: DBIL
observedValue: 0.006
//
molecule: O=C(N[C@H](CO)[C@H](O)c1ccc([N+](=O)[O-])cc1)C(Cl)Cl
recordedEndpoint: DBIL
observedValue: 0.012
//
molecule: O=C(O)c1cccnc1
recordedEndpoint: DBIL
observedValue: 0

---

# DBIL per record follows
# Species: Rattus norvegicus
# testDescription: Open TG-GATES - Regimen: Daily Repeat
# Format: toxicity, organism-based, Sprague-Dawley
# Design: regimen Daily Repeat, gender Male, age 6 weeks
# conditionNotes: in vivo, po, 0 mg/kg, […], tissue Plasma, route gavage, dose level Control, time 7 day
recordedEndpoint: DBIL (mg/dL)

compound: CCC(C)(C)C(=O)O[C@H]1C[C@@H](C)C=C2C=C[C@H](C)[C@H](CC[C@@H]3C[C@@H](O)CC(=O)O3)[C@H]21 [SIMVASTATIN]
recordedEndpoint: DBIL
uom: mg/dL
observedValue: 0.012
//
compound: CC(=O)Oc1cc(C(C)C)c(OCCN(C)C)cc1C [MOXISYLYTE]
recordedEndpoint: DBIL
uom: mg/dL
observedValue: 0
//
compound: CC(C)(S)[C@@H](N)C(=O)O [PENICILLAMINE]
recordedEndpoint: DBIL
uom: mg/dL
observedValue: 0.018
//
compound: O=C(O)c1cccnc1 [NIACIN]
recordedEndpoint: DBIL
uom: mg/dL
observedValue: 0
//
compound: Oc1ncnc2[nH]ncc12 [ALLOPURINOL]
recordedEndpoint: DBIL
uom: mg/dL
observedValue: 0.06

---

# Organism: Rattus norvegicus
# testDescription: Open TG-GATES - Regimen: Daily Repeat
# Type: toxicity, organism-based, Sprague-Dawley
# Parameters: regimen Daily Repeat, gender Male, age 6 weeks
# conditionNotes: in vivo, po, 1000 mg/kg, 72 h, tissue Plasma, route gavage, dose level High, time 3 day
recordedEndpoint: IP (mg/dL)

molecule: CC(C)(S)[C@@H](N)C(=O)O
observedValue: 7.5

molecule: O=C(O)c1cccnc1
observedValue: 8.5

molecule: O=C(N[C@H](CO)[C@H](O)c1ccc([N+](=O)[O-])cc1)C(Cl)Cl
observedValue: 6.2

molecule: CCN1CCCC1CNC(=O)c1cc(S(N)(=O)=O)ccc1OC (centres undefined) [SULPIRIDE]
observedValue: 8.3

---

# WBC per record follows
# Organism: Rattus norvegicus
# testDescription: Open TG-GATES - Regimen: Daily Repeat
# Assay type: toxicity, organism-based, Sprague-Dawley
# Parameters: regimen Daily Repeat, gender Male, age 6 weeks
# conditionNotes: in vivo, po, 1000 mg/kg, […], tissue Blood, route gavage, dose level High, time 7 day

compound: CCN1CCCC1CNC(=O)c1cc(S(N)(=O)=O)ccc1OC (centres undefined) [SULPIRIDE]
uom: x10_2/uL
WBC: 87.1
//
compound: O=C(O)c1cccnc1
uom: x10_2/uL
WBC: 127.7
//
compound: O=C(N[C@H](CO)[C@H](O)c1ccc([N+](=O)[O-])cc1)C(Cl)Cl
uom: x10_2/uL
WBC: 79.2
//
compound: CC(C)(S)[C@@H](N)C(=O)O
uom: x10_2/uL
WBC: 104.2

---

# Organism: Rattus norvegicus
# testDescription: Open TG-GATES - Regimen: Daily Repeat
# Format: toxicity, organism-based, Sprague-Dawley
# Design: regimen Daily Repeat, gender Male, age 6 weeks
# conditionNotes: in vivo, po, 300 mg/kg, […], tissue Blood, route gavage, dose level Middle, time 7 day
# PT per record follows
recordedEndpoint: PT (s)

compound: O=C(O)c1cccnc1
uom: s
observedValue: 15.6
//
compound: CCN1CCCC1CNC(=O)c1cc(S(N)(=O)=O)ccc1OC (centres undefined) [SULPIRIDE]
uom: s
observedValue: 13.1
//
compound: O=C(N[C@H](CO)[C@H](O)c1ccc([N+](=O)[O-])cc1)C(Cl)Cl
uom: s
observedValue: 14.5
//
compound: CC(C)(S)[C@@H](N)C(=O)O
uom: s
observedValue: 14

---

# Species: Rattus norvegicus
# testDescription: Open TG-GATES - Regimen: Single
# Type: toxicity, organism-based, Sprague-Dawley
# Design: regimen Single, gender Male, age 6 weeks
# conditionNotes: in vivo, po, 0 mg/kg, 3 h, tissue Plasma, route gavage, dose level Control

compound: O=C(N[C@H](CO)[C@H](O)c1ccc([N+](=O)[O-])cc1)C(Cl)Cl
BUN (mg/dL): 9.4
//
compound: Nc1nc(N)c2nc(-c3ccccc3)c(N)nc2n1
BUN (mg/dL): 9.4
//
compound: C[C@](N)(Cc1ccc(O)c(O)c1)C(=O)O
BUN (mg/dL): 10
//
compound: O=C(O)c1cccnc1
BUN (mg/dL): 12.8
//
compound: CCC(C)(C)C(=O)O[C@H]1C[C@@H](C)C=C2C=C[C@H](C)[C@H](CC[C@@H]3C[C@@H](O)CC(=O)O3)[C@H]21
BUN (mg/dL): 14.4
//
compound: Oc1ncnc2[nH]ncc12
BUN (mg/dL): 12
//
compound: C#C[C@]1(O)CC[C@H]2[C@@H]3CCc4cc(O)ccc4[C@H]3CC[C@@]21C
BUN (mg/dL): 10.6
//
compound: CC(=O)Oc1cc(C(C)C)c(OCCN(C)C)cc1C
BUN (mg/dL): 14.6
//
compound: C[C@]12CCC(=O)C=C1CC[C@@H]1[C@@H]2CC[C@@]2(C)[C@H]1CC[C@]2(C)O
BUN (mg/dL): 9.6
//
compound: CN1C(=O)OC(C)(C)C1=O
BUN (mg/dL): 9.6
//
compound: CC(C)(S)[C@@H](N)C(=O)O
BUN (mg/dL): 10
//
compound: CCc1oc2ccccc2c1C(=O)c1cc(I)c(O)c(I)c1
BUN (mg/dL): 12.8
//
compound: CCSCC[C@H](N)C(=O)O
BUN (mg/dL): 11.6
//
compound: CC(C)C(=O)Nc1ccc([N+](=O)[O-])c(C(F)(F)F)c1 [FLUTAMIDE]
BUN (mg/dL): 10.8
//
compound: CC(=N)S [THIOACETAMIDE]
BUN (mg/dL): 10.2
//
compound: CCN1CCCC1CNC(=O)c1cc(S(N)(=O)=O)ccc1OC (stereo unspecified) [SULPIRIDE]
BUN (mg/dL): 10.6
